Origin of values: the nanobody polyreactivity screen of Harvey et al. (2022)

Test: yeast display, Sf9 membrane polyspecificity reagent, FACS + sequencing; frameworks hold sequencing errors
RECORDED_METRIC: polyreactivity (PSR sort gate)

>>> value_reported("QVQLVESGGGLVQAGGSLRLSCAASGYILWNAMGCYRQAPGKDRELVAAISSGGSTNYADSVKGRFTISRDNAKNTVYLQMNSLKPEDTAVYYCNTDRFWPSDYWGQGTQVTVSS")
"low polyreactivity"
>>> value_reported("QVQLVESGGVLVQAGGSLRLSCAASGRTFRYYGMGWYRQAPGKERVVAAITWSGDTTYYADSVKGRFTISRDNAKNTVYLQMNSLKPEDTAVYYCAAQSWHRYYYWGQGTQVTVSS")
"high polyreactivity"
>>> value_reported("QVQLVESGGGLVQAGGSLRLSCAASGSIFSGNAMGWYRQAPGKERELVADITFSGSSTYADSVKGRFTISRDNAKNTVYLQMNSLKPEDTAVYYCAKKRPGFLRYGSIGEFQYDYWGQGTQVTVSS")
"low polyreactivity"
>>> value_reported("QVQLVESGGGLVQAGGSLRLSCAASGSTFSSYAMGWYRQAPGKERELVAGIAWGGSSTDYADSVKWRFTISRDTAKNTVYLQMNSLKPEDTAVYYCARRYRRGWSTLDYWGQGTQVTVSS")
"low polyreactivity"
>>> value_reported("QVQLVESGGGLVQAGGSLRLSCAASGSTFYLNVMGWYRQAPGKERELVAAISSGDGSTYYADSVKGRFTISRDNAKNTVYLQMNSLKPEDTAVYYCAAEPDTEVDYDYWGQGTQVTVSS")
"low polyreactivity"
>>> value_reported("QVQLVESGGGLVQAGGSLRLSCAASGIIFTYYAMGSYRQAPGKERELVAAISSRGDSTYYADSVKGRCTISRDNAKNTVSLQLNSLKTEDTAVYYCNRYLSRPLRAMYYWGIGTQVTVSS")
"high polyreactivity"
>>> value_reported("QVQLVESGGGLVQAGGSLRLSCAASGFTFRLYAMGWYRQAPGKERELVATITRRGGITTYADSVKGRFTISRDNAKNTVYLQMNSLKPEDTAVYYCNAGKYVYATSQYDYWGQGTQVTVSS")
"high polyreactivity"

Query sequence follows.
Ask | Give the value of polyreactivity (PSR sort gate) reported for the following: QVQLVESGGCLVQAGGSLRLSCAASGFTFSYYAMGWYRQAPGKERELVAAISSSSGTTYYADSVKRRFTISRDNANNTVYLQMNSLKPEDTAVYYCVVIARDGYDYWGQGTQVTVSS
Reply | high polyreactivity
